Task for the reader: assign each of the following compounds its reported MIC.
test system: Streptococcus pneumoniae; experiment: Antibacterial activity against erythromycin-resistant Streptococcus pneumoniae A22072 expressing mef gene by broth microdilution method; format: functional
Numbers only, in µg/mL.

Sample answers from the record:
smiles_notation: CC[C@H]1OC(=O)[C@H](C)[C@@H](O[C@H]2C[C@@](C)(OC)[C@@H](OC(=O)NNC(=O)c3ccccc3OC)[C@H](C)O2)[C@H](C)[C@@H](O[C@@H]2O[C@H](C)C[C@H](N(C)C)[C@H]2O)[C@](C)(O)C[C@@H](C)CN(C)[C@H](C)[C@@H](OC(=O)NCCc2ccccc2)[C@]1(C)O
unit_abbrev: µg/mL
MIC: 2
//
smiles_notation: CC[C@H]1OC(=O)[C@H](C)[C@@H](O[C@H]2C[C@@](C)(OC)[C@@H](OC(=O)NCCCCNC(=O)c3ccc(OC)c(OC)c3)[C@H](C)O2)[C@H](C)[C@@H](O[C@@H]2O[C@H](C)C[C@H](N(C)C)[C@H]2O)[C@](C)(O)C[C@@H](C)CN(C)[C@H](C)[C@@H](OC(=O)NCCc2ccccc2)[C@]1(C)O
unit_abbrev: µg/mL
MIC: 2

Next compound, please.
For CC[C@H]1OC(=O)[C@H](C)[C@@H](O[C@H]2C[C@@](C)(OC)[C@@H](OC(=O)NCCCCNC(=O)c3ccc(OC)cc3)[C@H](C)O2)[C@H](C)[C@@H](O[C@@H]2O[C@H](C)C[C@H](N(C)C)[C@H]2O)[C@](C)(O)C[C@@H](C)CN(C)[C@H](C)[C@@H](OC(=O)NCCc2ccc(OC)cc2)[C@]1(C)O , write its MIC. 0.25

###

test system: Streptococcus pneumoniae; test: Antibacterial activity against erythromycin-resistant Streptococcus pneumoniae A22072 expressing mef gene by broth microdilution method; format: functional
readout_type: MIC

smiles_notation: CC[C@H]1OC(=O)[C@H](C)[C@@H](O[C@H]2C[C@@](C)(OC)[C@@H](OC(=O)NCCCCNC(=O)c3ccc(OC)cc3)[C@H](C)O2)[C@H](C)[C@@H](O[C@@H]2O[C@H](C)C[C@H](N(C)C)[C@H]2O)[C@](C)(O)C[C@@H](C)CN(C)[C@H](C)[C@@H](OC(=O)NCc2ccc(F)cc2)[C@]1(C)O
readout_type: MIC
reading: 0.25 µg/mL
--
smiles_notation: CC[C@H]1OC(=O)[C@H](C)[C@@H](O[C@H]2C[C@@](C)(OC)[C@@H](OC(=O)NCCNC(=O)c3ccc(OC)c(OC)c3)[C@H](C)O2)[C@H](C)[C@@H](O[C@@H]2O[C@H](C)C[C@H](N(C)C)[C@H]2O)[C@](C)(O)C[C@@H](C)CN(C)[C@H](C)[C@@H](OC(=O)NCCc2ccccc2)[C@]1(C)O
readout_type: MIC
reading: 0.5 µg/mL

For CC[C@H]1OC(=O)[C@H](C)[C@@H](O[C@H]2C[C@@](C)(OC)[C@@H](OC(=O)NCCCCNC(=O)c3cc([N+](=O)[O-])cc([N+](=O)[O-])c3)[C@H](C)O2)[C@H](C)[C@@H](O[C@@H]2O[C@H](C)C[C@H](N(C)C)[C@H]2O)[C@](C)(O)C[C@@H](C)CN(C)[C@H](C)[C@@H](OC(=O)NCc2ccc(F)c(F)c2)[C@]1(C)O , write its MIC. 0.03 µg/mL

###

tested on: Streptococcus pneumoniae; test: Antibacterial activity against erythromycin-resistant Streptococcus pneumoniae A22072 expressing mef gene by broth microdilution method; format: functional
readout_type: MIC (µg/mL)
One number for each entry, in µg/mL.

smiles_notation: CC[C@H]1OC(=O)[C@H](C)[C@@H](O[C@H]2C[C@@](C)(OC)[C@@H](O)[C@H](C)O2)[C@H](C)[C@@H](O[C@@H]2O[C@H](C)C[C@H](N(C)C)[C@H]2O)[C@](C)(O)C[C@@H](C)C(=O)[C@H](C)[C@@H](O)[C@]1(C)O
target_system: Streptococcus pneumoniae
reading: 8

// fetch MIC for CC[C@H]1OC(=O)[C@H](C)[C@@H](O[C@H]2C[C@@](C)(OC)[C@@H](OC(=O)NCCCCNC(=O)c3cc([N+](=O)[O-])cc([N+](=O)[O-])c3)[C@H](C)O2)[C@H](C)[C@@H](O[C@@H]2O[C@H](C)C[C@H](N(C)C)[C@H]2O)[C@](C)(O)C[C@@H](C)CN(C)[C@H](C)[C@@H](OC(=O)NCCc2ccc(OC)cc2)[C@]1(C)O ; system: Streptococcus pneumoniae 0.03
